Listing of entries alongside the reported Improvement in pH responsiveness of inhibitory peptide relative to WT.
# systemTested: T1, thermostable variant of Streptomyces mobaraensis transglutaminase (Streptomyces mobaraensis, UniProt P81453 79-407)
# T1 sequence: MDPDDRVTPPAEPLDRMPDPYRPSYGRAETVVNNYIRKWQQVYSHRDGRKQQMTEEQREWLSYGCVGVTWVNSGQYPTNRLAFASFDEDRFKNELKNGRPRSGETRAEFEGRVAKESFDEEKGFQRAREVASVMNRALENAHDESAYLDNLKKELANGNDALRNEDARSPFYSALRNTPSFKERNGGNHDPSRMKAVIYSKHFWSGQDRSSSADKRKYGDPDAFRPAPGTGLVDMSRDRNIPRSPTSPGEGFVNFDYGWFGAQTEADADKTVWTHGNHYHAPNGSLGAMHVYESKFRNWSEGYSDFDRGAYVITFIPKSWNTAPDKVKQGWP
# assayDetails: cell-based or functional assay

# count of solved cases: 2
{"binder": "MDNGAGEELKSYAETYRLTADDVANINALNESAPAASSAGPSFRAP [pro-peptide variant T9L]", "reading": "> 1.2 fold"}
{"binder": "MDNGAGEETKSYAETYRITADDVANINALNESAPAASSAGPSFRAP [pro-peptide variant L18I]", "reading": "> 1.2 fold"}

Next:
Improvement in pH responsiveness of inhibitory peptide relative to WT for MDNGAGEETKSYAETYRWTADDVANINALNESAPAASSAGPSFRAP [pro-peptide variant L18W] ?
> 1.2 fold
